ASSAYED SYSTEM: F508delCFTR (Homo sapiens, UniProt P13569, DEL508-508)
Construct: expressed in transfected cells; host or cells: CFBE41o- (human lung derived epithelial cell line), doxycycline-inducible expression
Sequence (P13569 with tags, fused parts or gaps DEL508-508): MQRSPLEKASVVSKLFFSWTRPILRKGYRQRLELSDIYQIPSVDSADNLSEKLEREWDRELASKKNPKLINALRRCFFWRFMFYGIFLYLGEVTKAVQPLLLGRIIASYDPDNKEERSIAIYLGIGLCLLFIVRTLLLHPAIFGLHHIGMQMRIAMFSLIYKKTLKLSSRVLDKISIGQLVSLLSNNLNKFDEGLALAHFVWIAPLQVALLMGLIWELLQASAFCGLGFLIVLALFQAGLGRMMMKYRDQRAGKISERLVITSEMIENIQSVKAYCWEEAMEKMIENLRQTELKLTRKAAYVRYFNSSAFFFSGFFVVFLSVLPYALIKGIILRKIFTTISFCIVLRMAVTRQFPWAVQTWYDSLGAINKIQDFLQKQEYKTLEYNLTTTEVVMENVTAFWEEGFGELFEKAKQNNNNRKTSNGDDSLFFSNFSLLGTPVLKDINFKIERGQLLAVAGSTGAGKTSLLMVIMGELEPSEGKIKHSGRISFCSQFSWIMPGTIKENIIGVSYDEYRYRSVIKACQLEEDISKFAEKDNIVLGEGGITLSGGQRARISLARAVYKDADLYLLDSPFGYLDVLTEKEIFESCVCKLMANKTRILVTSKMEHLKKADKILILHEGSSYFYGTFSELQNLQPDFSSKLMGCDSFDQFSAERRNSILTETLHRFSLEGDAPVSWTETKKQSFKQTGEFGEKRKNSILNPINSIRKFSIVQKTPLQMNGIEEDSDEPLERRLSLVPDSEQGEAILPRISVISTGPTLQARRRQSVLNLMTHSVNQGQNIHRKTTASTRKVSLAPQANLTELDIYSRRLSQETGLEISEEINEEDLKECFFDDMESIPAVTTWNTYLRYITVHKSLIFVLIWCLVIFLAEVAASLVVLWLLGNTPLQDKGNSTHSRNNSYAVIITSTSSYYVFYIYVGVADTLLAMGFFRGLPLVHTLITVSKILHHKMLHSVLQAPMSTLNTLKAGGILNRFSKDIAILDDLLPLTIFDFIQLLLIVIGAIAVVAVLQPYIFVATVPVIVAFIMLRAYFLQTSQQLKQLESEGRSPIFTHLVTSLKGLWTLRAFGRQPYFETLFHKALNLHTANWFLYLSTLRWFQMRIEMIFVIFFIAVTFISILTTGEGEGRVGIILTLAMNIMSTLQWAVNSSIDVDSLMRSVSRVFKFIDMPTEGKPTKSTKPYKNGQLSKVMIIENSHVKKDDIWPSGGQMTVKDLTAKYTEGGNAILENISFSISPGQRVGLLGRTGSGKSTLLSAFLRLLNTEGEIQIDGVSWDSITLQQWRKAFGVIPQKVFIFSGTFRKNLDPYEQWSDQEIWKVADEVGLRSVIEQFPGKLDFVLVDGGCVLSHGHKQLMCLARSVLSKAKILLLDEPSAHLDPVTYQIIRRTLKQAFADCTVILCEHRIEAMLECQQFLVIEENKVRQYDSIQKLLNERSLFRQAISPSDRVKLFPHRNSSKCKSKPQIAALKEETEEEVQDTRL
ASSAY INFO: Cell Surface Expression-Horse Radish Peroxidase (CSE-HRP) assay;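 note: % of on-plate positive control (2 µM of the co-corrector compound) after DMSO subtraction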
Assay type: cell-based
ASSAY SETUP: CFBE41o-F508delCFTR-HRP cells; without co-corrector; normalized to on-plate positive control; highest concentration 20 μM
TEST READOUT: Maximum % activity (without co-corrector)

{"columns": ["COMPOUND", "ASSAYED SYSTEM", "RESULT"],
 "data": [
  ["COc1ncc(C2CCC2)cc1CO[C@H]1[C@H](C(C)(C)C)[C@@H](C(=O)O)N(C(=O)C2CCOCC2)[C@H]1c1cccnc1OC(C)C", "F508delCFTR (Homo sapiens, UniProt P13569, DEL508-508)", "++ (≥100 and <200)"],
  ["COc1ncc(-c2ccc(F)cc2C)cc1CO[C@H]1[C@H](C(C)(C)C)[C@@H](C(=O)O)N(C(=O)OC(C)C)[C@H]1c1ccccc1", "F508delCFTR (Homo sapiens, UniProt P13569, DEL508-508)", "+ (<100)"],
  ["COc1cc(OC)nc(OC2[C@@H](c3ccccc3)N(C(=O)N(C(C)C)C(C)C)[C@@H](C(=O)O)[C@@H]2C(C)(C)C)n1 (mixture of isomers)", "F508delCFTR (Homo sapiens, UniProt P13569, DEL508-508)", "+ (<100)"],
  ["COc1ncc(C(F)(F)F)cc1CO[C@H]1[C@H](C(C)(C)C)[C@@H](C(=O)O)N(C(=O)OC(C)C)[C@H]1c1cccnc1OC(C)C", "F508delCFTR (Homo sapiens, UniProt P13569, DEL508-508)", "++ (≥100 and <200)"],
  ["COc1nc2ccccc2cc1CO[C@H]1[C@H](C(C)(C)C)[C@@H](C(=O)O)N(C(=O)[C@@H]2CCCO2)[C@H]1c1ccccc1C1CC1", "F508delCFTR (Homo sapiens, UniProt P13569, DEL508-508)", "++ (≥100 and <200)"],
  ["COc1ncc(C(F)(F)F)cc1CO[C@H]1[C@H](C(C)(C)C)[C@@H](C(=O)O)N(C(=O)[C@@H]2CCCO2)[C@H]1c1ccccc1Cl", "F508delCFTR (Homo sapiens, UniProt P13569, DEL508-508)", "++ (≥100 and <200)"],
  ["CCc1ccccc1[C@H]1[C@@H](OCc2cc3cc(Cl)ccc3o2)[C@H](C(C)(C)C)[C@@H](C(=O)O)N1C(=O)[C@@H]1CCCCO1", "F508delCFTR (Homo sapiens, UniProt P13569, DEL508-508)", "++ (≥100 and <200)"],
  ["CN(C)c1ncc(C(F)(F)F)cc1CO[C@@H]1[C@@H](C(C)(C)C)[C@H](C(=O)O)N(C(=O)C2CCCCC2)[C@@H]1c1ccccc1 (racemic)", "F508delCFTR (Homo sapiens, UniProt P13569, DEL508-508)", "++ (≥100 and <200)"],
  ["COc1ncc(C(F)(F)F)cc1CO[C@H]1[C@H](C(C)(C)C)[C@@H](C(=O)O)N(C(=O)[C@@H]2CCCCO2)[C@H]1c1cccc(C(C)(C)C)c1", "F508delCFTR (Homo sapiens, UniProt P13569, DEL508-508)", "++ (≥100 and <200)"],
  ["COc1ncc(C(F)(F)F)cc1CO[C@H]1[C@H](C(C)(C)OC)[C@@H](C(=O)O)N(C(=O)[C@@H]2CCCCO2)[C@H]1c1ccccc1C(C)C", "F508delCFTR (Homo sapiens, UniProt P13569, DEL508-508)", "+++ (≥200)"],
  ["CCc1ccccc1[C@H]1[C@@H](OCc2cc(C(F)(F)F)cnc2OC)[C@H](C(C)(C)C)[C@@H](C(=O)O)N1C(=O)[C@@H]1CCCCO1", "F508delCFTR (Homo sapiens, UniProt P13569, DEL508-508)", "+++ (≥200)"],
  ["COc1nc2c(C)ccc(C)c2cc1CO[C@H]1[C@H](C(C)(C)C)[C@@H](C(=O)O)N(C(=O)C2CCCCC2)[C@H]1c1cccnc1OC(C)C", "F508delCFTR (Homo sapiens, UniProt P13569, DEL508-508)", "+++ (≥200)"]
]}
